test system: HOP-92 NSCLC; assay: NCI tumour cell line growth inhibition, 48 h
Entry flag: fulfilled if TGI reaches 2 µM; not fulfilled if it does not.

* NC(=O)Cc1nc2c(N)ncnc2n1C1OC(CO)C(O)C1O (stereo not given) | fulfilled
* COc1ccc(C2SCC(=O)N2NC(=O)c2ccc(NC(C)=O)cc2)c(OC)c1 (stereo not given) | fulfilled
* Cc1ccc(NC(=O)CC2Sc3ccccc3NC2=O)c(C)c1 (stereo not given) | fulfilled
* CC(Nc1ccc(S(=O)(=O)N=C(N)N)cc1)c1c2ccccc2nc2ccccc12 (stereo not given) | fulfilled
* Cc1nc2ccccc2c(/C=C/c2ccc(Cl)cc2)c1C(=O)/C=C/c1ccc(C(F)(F)F)cc1 | fulfilled
* O=C(NCCCO)c1cc(Cl)ccc1O | fulfilled
* Fc1ccc2c(c1)c(-c1nc(-c3c[nH]c4ncccc34)cs1)cn2CCCCN1CCCCC1 | fulfilled
* CCCCCCCCCCCCCCCCCCNC(=S)/N=C\C1=C(O)c2ccccc2C1=O | fulfilled
* CCN(CC)c1ccc(C(O)C2=CC(=O)c3ccccc3C2=O)cc1 (stereo not given) | not fulfilled
* CCC(=C/[C@H](C)C/C=C/C(C)=C/[C@@H](C)C(=O)[C@@H](C)[C@H](O)[C@@H](C)CC)/C=C/[C@@H]1OC(=O)C=C[C@H]1C | not fulfilled
